# Study Target: hDMT1 (Homo sapiens, UniProt P49281)
# Sequence (P49281 whole entry): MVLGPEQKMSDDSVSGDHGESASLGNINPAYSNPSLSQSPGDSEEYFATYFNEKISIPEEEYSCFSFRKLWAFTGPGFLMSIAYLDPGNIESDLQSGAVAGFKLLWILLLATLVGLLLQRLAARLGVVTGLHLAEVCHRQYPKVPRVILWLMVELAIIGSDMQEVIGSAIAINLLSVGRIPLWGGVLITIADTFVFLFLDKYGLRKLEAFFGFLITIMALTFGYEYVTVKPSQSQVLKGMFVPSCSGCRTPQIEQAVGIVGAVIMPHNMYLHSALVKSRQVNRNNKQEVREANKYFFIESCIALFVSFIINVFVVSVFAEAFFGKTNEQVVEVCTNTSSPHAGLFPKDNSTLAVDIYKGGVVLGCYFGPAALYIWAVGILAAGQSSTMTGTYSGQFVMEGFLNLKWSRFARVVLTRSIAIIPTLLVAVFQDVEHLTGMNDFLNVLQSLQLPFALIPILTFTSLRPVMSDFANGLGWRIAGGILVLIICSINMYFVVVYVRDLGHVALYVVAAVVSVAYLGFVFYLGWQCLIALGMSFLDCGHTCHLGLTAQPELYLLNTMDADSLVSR
# Experimental Details: 55Fe2+ uptake by HEK293T cells transiently transfected with hDMT1
# Type: cell-based
# Parameters: DsRED; expressed in transfected cells; host or cells: HEK293T (ATCC CRL-3216), transient transfection with Lipofectamine 2000
# Experimental Conditions: HEK293T transiently transfected with hDMT1, 55Fe2+ 1 μM, pH 5.5
pIC50: −log10 of the molar value.
Recorded measurements of pIC50, one per entry
Assay Metric: pIC50

{"Mol": "c1ccc(-c2ccccn2)nc1", "Assay Metric": "pIC50", "Reported Measurement": "~5.19"}
{"Mol": "Cc1cc(=O)[nH]c(-n2nc3c(c2C)CCCC3)n1", "Assay Metric": "pIC50", "Reported Measurement": "~5.96"}

These entries and their values trace back to paper PMC7649969.
